Counter-ions that a name gives are not always drawn.
A set of compounds tested on HOG PANCREAS PHOSPHOLIPASE A2 (Sus scrofa, UniProt P00592), with measured pIC50:
One number for each entry, as −log10 of the molar value.

Below are worked cases with known answers.
Compound	pIC50
CO[C@]1(c2ccccc2C)CC[C@H](NCCCC(=O)c2ccc(F)cc2)CC1 [B, hydrochloride, hemihydrate]	4.97
O=C(CCCN[C@H]1CC[C@](CO)(c2ccc(Cl)cc2)CC1)c1ccc(F)cc1 [G, hydrochloride]	4.26
O=C(CCCN[C@H]1CC[C@H](c2ccc(C(F)(F)F)cc2)CC1)c1ccc(F)cc1 [A]	5.29

Input line: State its pIC50: O=C(CCCN[C@H]1CC[C@](CO)(c2ccccc2)CC1)c1ccc(F)cc1 [I, hydrochloride]
Output line: 4.61

Provenance of the data: patent US4239780A
